# target.or.system: CCR3 (Homo sapiens, UniProt P51677)
# Construct: Human eosinophils were isolated from EDTA anticoagulated peripheral blood; endogenous in cells; host or cells: human peripheral blood eosinophils
# Sequence (P51677 1-355): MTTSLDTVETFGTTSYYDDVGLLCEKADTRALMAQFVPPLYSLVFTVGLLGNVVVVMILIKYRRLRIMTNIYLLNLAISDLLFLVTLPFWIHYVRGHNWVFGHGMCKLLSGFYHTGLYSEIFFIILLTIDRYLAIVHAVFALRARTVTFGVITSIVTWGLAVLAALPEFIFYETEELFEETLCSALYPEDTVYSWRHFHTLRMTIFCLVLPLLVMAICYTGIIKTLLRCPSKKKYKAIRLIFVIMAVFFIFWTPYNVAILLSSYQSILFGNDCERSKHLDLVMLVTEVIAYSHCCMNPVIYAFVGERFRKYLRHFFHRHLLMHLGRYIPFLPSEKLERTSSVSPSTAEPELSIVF
# assay.summary: Human eosinophil chemotaxis (eotaxin mediated)
# Type: cell-based
# settings: read-out: % inhibition at 3 nM eotaxin (1 uM compound), human eosinophils
Where a name gives a salt, the structure may show the parent alone.

compound	unit.name	inhibition at 1 µM
Cc1c(Cl)ccc(OC2CCN(C[C@H](O)CNC(=O)c3c[nH]c(=O)c4ccccc34)CC2)c1Cl	%	103
O=C(NC[C@@H](O)CN1CCC(Oc2ccc(Cl)c(Cl)c2)CC1)n1c(=O)[nH]c2ccccc21	%	102
O=C(NC[C@@H](O)CN1CCC(Oc2ccc(Cl)c(Cl)c2)CC1)[C@@H](O)c1ccccc1	%	104
O=C(NC[C@@H](O)CN1CCC(Oc2ccc(Cl)c(Cl)c2)CC1)c1c[nH]c2ccccc12	%	104
Cc1cc(Cl)ccc1OC1CCN(C[C@@H](O)CNC(=O)c2c[nH]c(=O)c3ccccc23)CC1 [Example 186, acetate salt]	%	104
O=C(NC[C@@H](O)CN1CCC(Oc2ccc(Cl)c(Cl)c2)CC1)c1c[nH]c(=O)c2ccccc12	%	106
NC(=O)c1c(OC2CCN(C[C@H](O)CNC(=O)c3c[nH]c(=O)c4ccccc34)CC2)ccc(Cl)c1Cl	%	101

Origin of the recorded values: patent US7709500B2
